Tested on: Miltenberger Antibody Positive Panel
Assay overview: Reactivity of modified RBCs against the Miltenberger Antibody Positive Panel
Format: cell-based, human
Set-up: key: 0 or ‘−’ no agglutination; 0 or ‘−’ no agglutination; 1+ or 3=very weak agglutination; 1+ or 3=very weak agglutination; 2+ or 5=weak agglutination; 2+ or 5=weak agglutination; 3+ or 8=moderate strong agglutination; 3+ or 8=moderate strong agglutination; 4+ or 10/12=strong agglutination; 4+ or 10/12=strong agglutination; 4+ or 10/12=strong agglutination
Test conditions: Table 8; construct 50 μg/ml
No end group written: not given here.
Attribute measured: score vs panel 8 T5896

>>> readout_value("M36: DOPE peptide-lipid construct: MUTK peptide SQTNDKHKRDT, leader c, spacer CMG(2) (SQTNDKHKRDTC; also: DOPE peptide-lipid construct via leader Cys, spacer CMG(2))")
0
>>> readout_value("M35: DOPE peptide-lipid construct: MUTK peptide QTNDKHKRDT, leader c, spacer CMG(2) (QTNDKHKRDTC; also: DOPE peptide-lipid construct via leader Cys, spacer CMG(2))")
0

Reference source for all entries: patent US10919941B2
